B1: RAB40B (parent)
chain: YSLTTSSTHKRSSLRKVKLVRPPQ

# Variants of: B1
# assayProcedure: protein stability index of a GFP-peptide fusion (GPS, HEK-293T) (PSI 1-6); higher = more stable;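 also: lentivirally expressed fusions sorted by FACS into six bins by GFP to DsRed ratio, PSI derived from sequencing read proportions per bin multiplied by bin number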
# conditionsUsed: c terminus: a fixed tail appended
Please respond with reported protein stability index for every item in the list.
One number for each entry.

INSERT INTO results (var, measure, endpointvalue) VALUES
  ('R15S', 'protein stability index', 2.95),
  ('S12E', 'protein stability index', 3.07),
  ('K10Y', 'protein stability index', 3.05),
  ('R21Q', 'protein stability index', 2.95),
  ('R21S', 'protein stability index', 3.09),
  ('T5S', 'protein stability index', 3.07);

Would you mind giving protein stability index for every variant in the list below?
1. S12C
2. T4E
3. S12D
4. P22H
5. S13H

Reply:
2.41
3.52
3.71
2.49
3.18

Would you mind giving protein stability index for every variant in the list below?
1. S6Y
2. S13A
3. K18G
4. K16H
5. T8C
6. H9V
7. T4Y
8. Y1C

Reply:
1: 2.48; 2: 3.25; 3: 2.81; 4: 2.54; 5: 2.8; 6: 2.65; 7: 2.17; 8: 3.16

Would you mind giving protein stability index for every variant in the list below?
1. K16C
2. K18C
3. Q24T
4. K10F
5. P22K
6. V20M
7. S12H

Reply:
[2.58, 2.63, 3, 2.62, 3.28, 2.79, 3.16]

Query: # input variant: V17F ; wanted: its protein stability index
Reply: 2.67
